Assay: Drug bioconcentration in zebrafish embryos, UV-visible spectroscopy
Assay type: in vivo
Settings: whole embryo extract, 25 µM, without chorion, 48 h, incubation 25 µM, volume of measurement 100 µL, read-out: conc. in zebrafish embryos
Procedure: To get an approximation of the distribution and concentration of GAT1033 (the lipophilic compound) in the embryos, in the presence and absence of the chorion, we conducted a first analysis visualizing the embryos by laser scanning confocal microscopy. […] We then quantified the internal concentration of GAT1033 by UV-visible spectroscopy (Figure 9). To do this, we incubated embryos, with and without chorion, with a fixed dose of the compound for different extensions of time. […]
value.type: concentration at 48 h (µM)
Numeric answer only, unit µM assumed.

Short answer for C=CCn1c(-c2ccc(Cl)cc2)cs\c1=N/N=C/C=C/c1ccco1 : concentration at 48 h was 7.3

* * *

Target: LmTIM (triosephosphate isomerase from Leishmania mexicana) (Leishmania mexicana, UniProt P48499)
Construct: made in house; host or cells: Escherichia coli
Sequence (P48499 whole entry): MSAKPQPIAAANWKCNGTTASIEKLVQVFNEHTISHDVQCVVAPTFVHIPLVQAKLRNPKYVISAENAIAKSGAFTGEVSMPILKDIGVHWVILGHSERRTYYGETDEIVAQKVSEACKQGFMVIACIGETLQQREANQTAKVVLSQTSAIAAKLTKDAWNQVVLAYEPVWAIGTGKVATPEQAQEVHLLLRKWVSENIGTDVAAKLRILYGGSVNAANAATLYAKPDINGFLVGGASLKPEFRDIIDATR
Experiment: Inhibition of triosephosphate isomerase
Format: biochemical
Conditions: read-out: Percentage of Inhibition LmTIM
Experimental: Compounds were dissolved in DMSO. […] The experiments were performed in triplicate.
value.type: inhibition at 100 µM

Study these solved cases before continuing.
O=C(/C=C/C=C/c1ccco1)/C=C/C=C/c1ccco1: 0%
CC(/C=C/C(=O)/C=C/C(C)=C/c1ccco1)=C\c1ccco1: 100%
C=CCn1c(-c2ccc(Cl)cc2)cs\c1=N/N=C/C=C/c1ccco1: 0%
O=C1/C(=C/C=C/c2ccco2)CCC/C1=C\C=C\c1ccco1: 100%
O=C(/C=C/c1cccs1)/C=C/c1cccs1: 100%

We now examine a further molecule.
Short answer for C=CCn1c(C(=O)N2CCN(C/C=C/c3ccccc3)CC2)cs\c1=N/N=C/C=C/c1ccco1 : inhibition at 100 µM was 0%

* * *

melting point values by entry

Study these solved cases before continuing.
C(=C\c1ccco1)/C=N/N1CCN(Cc2ccccc2)CC1: 145 to 147 °C
Cc1ccc(/C=C/C=C/C(/C=C/C=C/c2ccc(C)o2)=NN2CCN(CC=Cc3ccccc3)CC2)o1: 148 to 150 °C
Clc1ccc(-c2csc(N/N=C/C=C/c3ccco3)n2)cc1 [GAT2212B]: 212 °C (dec.)

We now examine a further compound.
Short answer for C=CCn1c(-c2ccc(Cl)cc2)cs\c1=N/N=C/C(C)=C/c1ccco1 : melting point was 228 °C (dec.)

* * *

assay: Drug bioconcentration in zebrafish embryos, UV-visible spectroscopy; format: in vivo; conditions: whole embryo extract, 25 µM, without chorion, 72 h, incubation 25 µM, volume of measurement 100 µL, read-out: conc. in zebrafish embryos
value.type: concentration at 72 h (µM)
Numeric answer only, unit µM assumed.

Short answer for C=CCn1c(-c2ccc(Cl)cc2)cs\c1=N/N=C/C=C/c1ccco1 : concentration at 72 h was 8.1

* * *

molecular target: UniProtKB P25779; assay: Inhibition of T. cruzi cruzipain; conditions: pool of cruzipain isoforms obtained from T. cruzi; read-out: IC50 ± SD Cruzipain
Sequence (P25779 123-467): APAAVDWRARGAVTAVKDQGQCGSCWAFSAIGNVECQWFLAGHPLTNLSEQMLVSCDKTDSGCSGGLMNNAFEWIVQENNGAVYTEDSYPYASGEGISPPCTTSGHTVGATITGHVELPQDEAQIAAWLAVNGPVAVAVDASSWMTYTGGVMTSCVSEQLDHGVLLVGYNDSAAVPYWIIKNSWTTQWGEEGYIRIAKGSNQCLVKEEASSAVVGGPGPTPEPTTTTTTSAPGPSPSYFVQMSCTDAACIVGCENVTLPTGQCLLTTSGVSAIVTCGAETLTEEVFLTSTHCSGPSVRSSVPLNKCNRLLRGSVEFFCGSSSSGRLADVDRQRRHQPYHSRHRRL
value.type: IC50 (µM)
Numeric answer only, unit µM assumed.

Short answer for C=CCn1c(C(=O)N2CCN(C/C=C/c3ccccc3)CC2)cs\c1=N/N=C/C=C/c1ccco1 [HIT1] : IC50 was 4.3

* * *

LD50 without chorion values by entry
test system: zebrafish embryos; experiment: Zebrafish embryo toxicity test (LD50); settings: dechorionated zebrafish embryos, 72 h incubation
Numeric answer only, unit µM assumed.

Study these solved cases before continuing.
C=CCn1c(-c2ccc(Cl)cc2)cs\c1=N/N=C/C=C/c1ccco1: 27
CC(=O)N1CCN(c2ccc(OCC3COC(Cn4ccnc4)(c4ccc(Cl)cc4Cl)O3)cc2)CC1 (stereo not shown) [Ketoconazole, reference compound]: 12

We now examine a further compound.
Short answer for C=CCn1c(C(=O)N2CCN(C/C=C/c3ccccc3)CC2)cs\c1=N/N=C/C=C/c1ccco1 : LD50 without chorion was 61

* * *

Test: Drug bioconcentration in zebrafish embryos, UV-visible spectroscopy
Type: in vivo
Conditions: whole embryo extract, 25 µM, with chorion, 72 h, incubation 25 µM, volume of measurement 100 µL, read-out: conc. in zebrafish embryos
Experimental: To get an approximation of the distribution and concentration of GAT1033 (the lipophilic compound) in the embryos, in the presence and absence of the chorion, we conducted a first analysis visualizing the embryos by laser scanning confocal microscopy. […] We then quantified the internal concentration of GAT1033 by UV-visible spectroscopy (Figure 9). To do this, we incubated embryos, with and without chorion, with a fixed dose of the compound for different extensions of time. […]
value.type: concentration at 72 h (nM)
Numeric answer only, unit nM assumed.

Short answer for C=CCn1c(-c2ccc(Cl)cc2)cs\c1=N/N=C/C=C/c1ccco1 : concentration at 72 h was 1800

* * *

LD50 with chorion values by entry
tested on: zebrafish embryos; assay: Zebrafish embryo toxicity test (LD50); settings: zebrafish embryos with chorion

Study these solved cases before continuing.
O=C(Cn1ccnc1[N+](=O)[O-])NCc1ccccc1 [Benznidazole, reference compound]: > 1000 µM
C=CCn1c(C(=O)N2CCN(C/C=C/c3ccccc3)CC2)cs\c1=N/N=C/C=C/c1ccco1: > 100 µM
CC(=O)N1CCN(c2ccc(OCC3COC(Cn4ccnc4)(c4ccc(Cl)cc4Cl)O3)cc2)CC1 (stereo not shown) [Ketoconazole, reference compound]: > 25 µM

We now examine a further compound.
Short answer for C=CCn1c(-c2ccc(Cl)cc2)cs\c1=N/N=C/C=C/c1ccco1 : LD50 with chorion was > 100 µM

* * *

melting point values by entry

C=CCn1c(-c2ccc(Cl)cc2)cs\c1=N/N=C/C=C/c1ccc(C)o1 [GAT0113A]: 220 °C (dec.)
C=CCn1c(C(=O)CNN2CCN(CC=Cc3ccccc3)CC2)cs/c1=N/N=C\C=C\c1ccco1 [GAT0613]: 150 to 153 °C

Short answer for C=CCn1c(C(=O)CN2CCN(CC=Cc3ccccc3)CC2)cs/c1=N/N=C\C=C\c1ccco1 [GATk6] : melting point was 140 to 142 °C
